Where do the numbers come from? From paper PMC6981454.

Hi there, I'd appreciate the recorded IC50 for every entry that follows.
Test system: CFPAC-1
Experiment: MTT cytotoxicity assay, 72 h
Format: cell-based, human
Conditions: IC50 ± SD
The response must be a number in µM with no trailing unit.

// assay CFPAC-1, entry CCCn1cnc2c(-c3ccc(OC(F)(F)F)cc3)nc(NCC3CCCCC3)nc21 , IC50 value = 98

Reported IC50 (CFPAC-1) for entry CCCn1cnc2c(-c3ccc(OC(F)(F)F)cc3)nc(NC3CCCCC3)nc21 is 69

For the compound N.N.[Cl][Pt][Cl] [Cisplatin, reference compound] , the measured IC50 on CFPAC-1 was 3.16

Response field IC50 (CFPAC-1) for item CCn1cnc2c(-c3ccc(OC(F)(F)F)cc3)nc(NCC3CCCCC3)nc21 : 67

====

For each entry below, report its melting point value.

Kindly note the recorded melting point for FC(F)(F)c1ccc(N2CCN(c3nc(Cl)nc4c3ncn4C3CCCC3)CC2)nc1 , which is 160 to 162 °C

melting point recorded for this molecule, CCn1cnc2c(-c3ccc(OC(F)(F)F)cc3)nc(NC3CCCC3)nc21 , is 85 to 87 °C

Entry CCCCCCn1cnc2c(-c3ccc(OC(F)(F)F)cc3)nc(NC3CCCCCC3)nc21 ; melting point = 68 to 70 °C

Input CCCCCn1cnc2c(-c3ccc(OC(F)(F)F)cc3)nc(NC3CCCCCC3)nc21 . Output melting point: 50 to 53 °C

Entry CCCCCn1cnc2c(-c3ccc(OC(F)(F)F)cc3)nc(N3CCC(c4ccccc4)CC3)nc21 ; melting point = 150 to 153 °C

Noted for CCCCn1cnc2c(-c3ccc(OC(F)(F)F)cc3)nc(NC3CCCCCC3)nc21 : its melting point reads 72 to 74 °C

====

Tested on: NCI-H460
Test: MTT cytotoxicity assay, 72 h
Type: cell-based, human
Settings: IC50 in MRC-5 / IC50 in NCI-H460
Text: In our study, the human cancer cell lines used were CFAPC- 1 (pancreatic adenocarcinoma); NCI-H460 (large cell lung); HL-60 (acute promyelocytic leukaemia); CACO2 (colorectal adenocarcinoma); HCT-116 (colorectal carcinoma); K562 (chronic myeloid leukaemia); MCF-7 (breast adenocarcinoma); and MRC-5 control cells (normal fibroblasts). […]
MEASURED PROPERTY: Selectivity Index (SI) MRC-5/NCI-H460
Please respond with just the number, no unit label.

Selectivity Index (SI) MRC-5/NCI-H460 of FC(F)(F)c1ccc(N2CCN(c3nc(Cl)nc4c3ncn4C3CCCC3)CC2)nc1 [7c] , assay on NCI-H460, is 11.7

Record Clc1nc(N2CCN(c3cnccn3)CC2)c2ncn(C3CCCC3)c2n1 [7d] / NCI-H460, Selectivity Index (SI) MRC-5/NCI-H460 recorded as 2.0

The reported Selectivity Index (SI) MRC-5/NCI-H460 value, NCI-H460, for Clc1ccc(N2CCN(c3nc(Cl)nc4c3ncn4C3CCCC3)CC2)cc1 [7g] reads 1.1

Log: NCI-H460, molecule COc1ccc(N2CCN(c3nc(Cl)nc4c3ncn4C3CCCC3)CC2)cc1 [7j] , Selectivity Index (SI) MRC-5/NCI-H460 = 4.2

====

Hi there, I'd appreciate the recorded log10 IC50 for every entry that follows.
System: MCF-7
Test: MTT cytotoxicity assay, 72 h
Format: cell-based, human
Conditions: Homo sapiens, MCF7, 72 h, MTT, 72 h, IC50 ± SD
Transform log10 | Measure IC50 | Unit µM

log10 IC50 reported for this molecule Clc1nc(N2CCN(c3ccccc3)CC2)c2ncn(C3CCCC3)c2n1 : 0.79

Please fill in: log10 IC50 reported for FC(F)(F)c1ccc(N2CCN(c3nc(Cl)nc4c3ncn4C3CCCC3)CC2)nc1 = -0.28

The reported value for O=[N+]([O-])c1ccc(N2CCN(c3nc(Cl)nc4c3ncn4C3CCCC3)CC2)nc1 in terms of log10 IC50 is -0.02

Record summary for COc1ccc(N2CCN(c3nc(Cl)nc4c3ncn4C3CCCC3)CC2)cc1 : reported log10 IC50 = 0.82

Kindly note the recorded log10 IC50 for Clc1nc(N2CCN(c3ccncc3)CC2)c2ncn(C3CCCC3)c2n1 , which is 1.34

Clc1ccc(N2CCN(c3nc(Cl)nc4c3ncn4C3CCCC3)CC2)cc1 has a reported log10 IC50 of -0.01

Input Clc1nc(N2CCN(c3ccccn3)CC2)c2ncn(C3CCCC3)c2n1 . Output log10 IC50: 0.71

====

Field: IC50. Provide a value for each of the compounds that follow.
System: K562
Experiment: MTT cytotoxicity assay, 72 h
Assay type: cell-based, human
Conditions: MTT, 72 h, IC50 ± SD
Excerpt: In our study, the human cancer cell lines used were CFAPC- 1 (pancreatic adenocarcinoma); NCI-H460 (large cell lung); HL-60 (acute promyelocytic leukaemia); CACO2 (colorectal adenocarcinoma); HCT-116 (colorectal carcinoma); K562 (chronic myeloid leukaemia); MCF-7 (breast adenocarcinoma); and MRC-5 control cells (normal fibroblasts). […]

# compound CCCn1cnc2c(-c3ccc(OC(F)(F)F)cc3)nc(NC3CCCC3)nc21 ; its IC50 = > 25 µM

Noted for CCCn1cnc2c(-c3ccc(OC(F)(F)F)cc3)nc(NCC3CCCCC3)nc21 : its IC50 reads > 25 µM

# IC50 of CCn1cnc2c(-c3ccc(OC(F)(F)F)cc3)nc(NCC3CCCCC3)nc21 = > 25 µM

The compound identified as FC(F)(F)c1ccc(N2CCN(c3nc(Cl)nc4c3ncn4C3CCCC3)CC2)nc1 registered its IC50 at 0.39 µM

For reference, reported IC50 for CCCn1cnc2c(-c3ccc(OC(F)(F)F)cc3)nc(NC3CCCCC3)nc21 stands at > 25 µM

IC50 in this record for N.N.[Cl][Pt][Cl] [Cisplatin, reference compound] : 4.67 µM

====

Test system: HL-60
Assay: MTT cytotoxicity assay, 72 h
Assay type: cell-based, human
Conditions: IC50 in MRC-5 / IC50 in HL-60
MEASURED PROPERTY: Selectivity Index (SI) MRC-5/HL-60

Short answer for O=[N+]([O-])c1ccc(N2CCN(c3nc(Cl)nc4c3ncn4C3CCCC3)CC2)nc1 : Selectivity Index (SI) MRC-5/HL-60 was > 47.6

Selectivity Index (SI) MRC-5/HL-60 recorded for this molecule, Clc1nc(N2CCC(c3ccccc3)CC2)c2ncn(C3CCCC3)c2n1 , is > 33.3

Selectivity Index (SI) MRC-5/HL-60 for O=[N+]([O-])c1ccc(N2CCN(c3nc(Cl)nc4c3ncn4C3CCCC3)CC2)cc1 is > 250

====

System: NCI-H460
Assay: MTT cytotoxicity assay, 72 h
Assay type: cell-based, human
Settings: IC50 in MRC-5 / IC50 in NCI-H460
Field: Selectivity Index (SI) MRC-5/NCI-H460. Provide a value for each of the molecules that follow.

Recorded result, Clc1nc(N2CCC(c3ccccc3)CC2)c2ncn(C3CCCC3)c2n1 [7e] , Selectivity Index (SI) MRC-5/NCI-H460: > 9.1

Quick note, Selectivity Index (SI) MRC-5/NCI-H460 for O=[N+]([O-])c1ccc(N2CCN(c3nc(Cl)nc4c3ncn4C3CCCC3)CC2)nc1 [7a] landed at > 17.5

Clc1nc(N2CCN(c3ccncc3)CC2)c2ncn(C3CCCC3)c2n1 [7i] yielded Selectivity Index (SI) MRC-5/NCI-H460 of > 11.7

Entry O=[N+]([O-])c1ccc(N2CCN(c3nc(Cl)nc4c3ncn4C3CCCC3)CC2)cc1 [7h] ; Selectivity Index (SI) MRC-5/NCI-H460 = > 76.3
